Molecular target: human Claudin-6 (CLDN6) (human) (UniProt P56747)
Test: FACS, limiting dilution, ARK2 cells
resultType: FACS signal at 200 nM

[Q] Look up FACS signal at 200 nM of AB S2 (antibody, V domains shown) VH: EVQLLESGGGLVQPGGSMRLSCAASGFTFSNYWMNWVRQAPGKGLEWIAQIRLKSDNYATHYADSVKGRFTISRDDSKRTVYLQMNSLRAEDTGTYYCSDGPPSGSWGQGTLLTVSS VL: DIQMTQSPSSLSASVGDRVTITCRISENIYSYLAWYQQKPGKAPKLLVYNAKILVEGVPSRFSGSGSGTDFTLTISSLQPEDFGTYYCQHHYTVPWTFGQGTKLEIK and report it.
[A] 83400
